assay method text: Toxicity in Galleria mellonella assessed as survival rate at 200 mg/kg for 4 days relative to control
Assay type: organism-based
test context: in vivo
quantity measured: survival at 96 h (%)

INSERT INTO assay_data (structure_as_smiles, quantity_measured, data_value) VALUES
  ('Cl.Cl.Cl.Cl.Cl.Cl.Cl.NCCCC[C@H](N)C(=O)N(CCCCCCCCCCCCO[C@@H]1[C@@H](O[C@H]2O[C@H](CO)[C@@H](O)[C@H](N)[C@H]2O)[C@H](N)C[C@H](N)[C@H]1O[C@H]1O[C@H](CN)[C@@H](O)C[C@H]1N)Cc1c2ccccc2c(Cl)c2ccccc12', 'survival at 96 h', 100);
